Entries and their measured melting point follow.

# molecule, melting point
rows = [
    ("CC(Cc1ccccc1)(CC(F)(F)F)NC(=O)c1cnc2c(Cl)cccc2c1 (stereo not shown) [X.005]", "141 to 144 °C"),
    ("CC(C)CC(C)(Cc1cccc(F)c1)NC(=O)c1cnc2c(F)cccc2c1 (stereo not shown) [X.011]", "45 to 47 °C"),
    ("Cc1cccc2cc(C(=O)NC(C)(Cc3ccccc3)CC(F)(F)F)cnc12 (stereo not shown) [X.004]", "120 to 123 °C"),
    ("CC(C)CC(C)(Cc1ccccc1)NC(=O)c1cnc2ccccc2c1 (stereo not shown) [X.019]", "121 to 123 °C"),
    ("C=C(C)CC(C)(Cc1ccccc1)NC(=O)c1cnc2c(F)c(F)ccc2c1 (stereo not shown) [X.010]", "94 to 96 °C"),
    ("CC(Cc1ccccc1)(CC(F)(F)F)NC(=O)c1cnc2ccccc2c1 (stereo not shown) [X.020]", "130 to 132 °C"),
    ("Cc1cccc2cc(C(=O)NC(C)(Cc3ccccc3)CC(C)C)cnc12 (stereo not shown) [X.017]", "132 to 133 °C"),
    ("CC(C)(C)CC(C)(Cc1ccccc1)NC(=O)c1cnc2c(F)cccc2c1 (stereo not shown) [X.016]", "48 to 50 °C"),
    ("C=C(Cl)CC(C)(Cc1ccccc1)NC(=O)c1cnc2c(F)cccc2c1 (stereo not shown) [X.001]", "56 to 59 °C"),
    ("CC(C)CC(C)(Cc1ccccc1)NC(=O)c1cnc2c(Cl)cccc2c1 (stereo not shown) [X.018]", "147 to 148 °C"),
    ("CC(Cc1ccccc1)(CC1(F)CC1)NC(=O)c1cnc2c(F)cccc2c1 (stereo not shown) [X.013]", "119 to 121 °C"),
    ("CC1(CC(C)(Cc2ccccc2)NC(=O)c2cnc3c(F)cccc3c2)CC1 (stereo not shown) [X.003]", "126 to 129 °C"),
    ("CC(C)CC(C)(Cc1ccccc1)NC(=O)c1cnc2c(F)cccc2c1 (stereo not shown) [X.002]", "110 to 112 °C"),
    ("CC(Cc1cccc(F)c1)(CC(F)(F)F)NC(=O)c1cnc2c(F)cccc2c1 (stereo not shown) [X.012]", "149 to 151 °C"),
    ("CC(Cc1ccccc1)(CC(F)(F)F)NC(=O)c1cnc2c(F)cccc2c1 (stereo not shown) [X.006]", "158 to 160 °C"),
    ("CC(C)CC(C)(Cc1ccccc1)NC(=O)c1cnc2c(F)c(F)ccc2c1 (stereo not shown) [X.008]", "114 to 116 °C"),
]

----------
System: Gibberella zeae (Fusarium graminearum)
Assay: whole plant or invertebrate
Type: in vivo
Details: in Triticum aestivum, read-out: control of Gibberella zeae
Quick reference: pest or weed control at 200 ppm of the listed items.

# compound, pest or weed control at 200 ppm
rows = [
    ("C=C(Cl)CC(C)(Cc1ccccc1)NC(=O)c1cnc2c(F)cccc2c1 (stereo not drawn)", "≥ 80%"),
    ("CC(C)(F)CC(C)(Cc1ccccc1)NC(=O)c1cnc2c(F)cccc2c1 (stereo not drawn)", "≥ 80%"),
    ("C[C@@](Cc1cccc(F)c1)(CC(F)(F)F)NC(=O)c1cnc2c(F)cccc2c1", "≥ 80%"),
    ("CC(C)CC(C)(Cc1ccccc1)NC(=O)c1cnc2ccccc2c1 (stereo not drawn)", "≥ 80%"),
    ("C[C@@](Cc1ccccc1)(CC(F)(F)F)NC(=O)c1cnc2c(F)c(F)ccc2c1", "≥ 80%"),
    ("CC(C)(F)C[C@](C)(Cc1ccccc1)NC(=O)c1cnc2c(F)cccc2c1", "≥ 80%"),
    ("C=C(C)C[C@@](C)(Cc1ccccc1)NC(=O)c1cnc2c(F)cccc2c1", "≥ 80%"),
    ("C=C(C)CC(C)(Cc1ccccc1)NC(=O)c1cnc2c(F)cccc2c1 (stereo not drawn)", "≥ 80%"),
    ("C=C(C)C[C@](C)(Cc1ccccc1)NC(=O)c1cnc2c(F)cccc2c1", "≥ 80%"),
    ("CC(Cc1ccccc1)(CC(F)(F)F)NC(=O)c1cnc2c(Cl)cccc2c1 (stereo not drawn)", "≥ 80%"),
    ("CC(F)(F)CC(C)(Cc1ccccc1)NC(=O)c1cnc2c(F)cccc2c1 (stereo not drawn)", "≥ 80%"),
    ("CC(C)(F)C[C@@](C)(Cc1ccccc1)NC(=O)c1cnc2c(F)cccc2c1", "≥ 80%"),
    ("Cc1cccc2cc(C(=O)NC(C)(Cc3ccccc3)CC(C)C)cnc12 (stereo not drawn)", "≥ 80%"),
    ("CC(Cc1ccccc1)(CC(F)(F)F)NC(=O)c1cnc2c(F)c(F)ccc2c1 (stereo not drawn)", "≥ 80%"),
    ("CC(Cc1cccc(F)c1)(CC(F)(F)F)NC(=O)c1cnc2c(F)cccc2c1 (stereo not drawn)", "≥ 80%"),
    ("C=C(C)C[C@](C)(Cc1ccccc1)NC(=O)c1cnc2c(F)c(F)ccc2c1", "≥ 80%"),
    ("CC(F)(F)C[C@](C)(Cc1ccccc1)NC(=O)c1cnc2c(F)cccc2c1", "≥ 80%"),
    ("C[C@](Cc1ccccc1)(CC(F)(F)F)NC(=O)c1cnc2ccccc2c1", "≥ 80%"),
]
